From: paper PMC8879095

- experiment-notes: Antibiotic concentrations in porcine oral fluid after intramuscular application (UHPLC-MS/MS)
- Format: in vivo
- setup-conditions: male, (Landrace × Yorkshire) × Duroc crossbred (DanBred sows), pig, intramuscular; oral fluid, pigs, i.m., time 11 d, posttreatment; read-out: Avarage Concentrations in oral fluid
Hi there, I'd appreciate the recorded concentration at 11 d for every entry that follows.

// worked examples, concentration at 11 d included
compound="COc1cc(Cc2cnc(N)nc2N)cc(OC)c1OC [TRMP, trimethoprim]" obs_value="67.1 ng/mL"
compound="CCC[C@@H]1C[C@@H](C(=O)N[C@@H]([C@H]2O[C@H](SC)[C@H](O)[C@@H](O)[C@H]2O)[C@@H](C)O)N(C)C1 [LIN, lincomycin]" obs_value="194 ng/mL"
compound="CC[C@H]1OC(=O)C[C@@H](O)[C@H](C)[C@@H](O[C@@H]2O[C@H](C)[C@@H](O[C@H]3C[C@@](C)(O)[C@@H](O)[C@H](C)O3)[C@H](N(C)C)[C@H]2O)[C@@H](CC=O)C[C@@H](C)C(=O)/C=C/C(C)=C/[C@@H]1CO[C@@H]1O[C@H](C)[C@@H](O)[C@@H](OC)[C@H]1OC [TYL, tylosin]" obs_value="54.4 ng/mL"
compound="C=C[C@]1(C)C[C@@H](OC(=O)CSCCN(CC)CC)[C@]2(C)[C@H](C)CC[C@]3(CCC(=O)[C@H]32)[C@@H](C)[C@@H]1O [TIAM, tiamulin]" obs_value="279 ng/mL"

Reported concentration at 11 d ( COc1ncnc(NS(=O)(=O)c2ccc(N)cc2)c1OC [SDX, sulfadoxine] ) = 247 ng/mL

###

- experiment-notes: Antibiotic concentrations in porcine oral fluid after intramuscular application (UHPLC-MS/MS)
- Type: in vivo
- setup-conditions: male, (Landrace × Yorkshire) × Duroc crossbred (DanBred sows), pig, intramuscular; oral fluid, pigs, i.m., time 4 d, posttreatment; read-out: Avarage Concentrations in oral fluid
observation-type: concentration at 4 d (ng/mL)
Numbers only, in ng/mL.

// worked examples, concentration at 4 d included
smiles_string=C=C[C@]1(C)C[C@@H](OC(=O)CSCCN(CC)CC)[C@]2(C)[C@H](C)CC[C@]3(CCC(=O)[C@H]32)[C@@H](C)[C@@H]1O result_units=ng/mL obs_value=1560
smiles_string=COc1ncnc(NS(=O)(=O)c2ccc(N)cc2)c1OC result_units=ng/mL obs_value=4010
smiles_string=CC1(C)S[C@@H]2[C@H](NC(=O)[C@H](N)c3ccc(O)cc3)C(=O)N2[C@H]1C(=O)O result_units=ng/mL obs_value=11.4

Look up concentration at 4 d for the entries below, preserving their order.
1. CC[C@H]1OC(=O)C[C@@H](O)[C@H](C)[C@@H](O[C@@H]2O[C@H](C)[C@@H](O[C@H]3C[C@@](C)(O)[C@@H](O)[C@H](C)O3)[C@H](N(C)C)[C@H]2O)[C@@H](CC=O)C[C@@H](C)C(=O)/C=C/C(C)=C/[C@@H]1CO[C@@H]1O[C@H](C)[C@@H](O)[C@@H](OC)[C@H]1OC
2. CCC[C@@H]1C[C@@H](C(=O)N[C@@H]([C@H]2O[C@H](SC)[C@H](O)[C@@H](O)[C@H]2O)[C@@H](C)O)N(C)C1
3. CC1(C)S[C@@H]2[C@H](NC(=O)Cc3ccccc3)C(=O)N2[C@H]1C(=O)O
4. COc1cc(Cc2cnc(N)nc2N)cc(OC)c1OC

Marked response:
1: 654; 2: 1550; 3: 16; 4: 1030

###

- experiment-notes: Antibiotic concentrations in porcine oral fluid after intramuscular application (UHPLC-MS/MS)
- Assay type: in vivo
- setup-conditions: male, (Landrace × Yorkshire) × Duroc crossbred (DanBred sows), pig, intramuscular; oral fluid, pigs, i.m., time 1 d (24 h after first injection), treatment period; read-out: Avarage Concentrations in oral fluid
observation-type: concentration at 1 d (ng/mL)
One number for each entry, in ng/mL.

smiles_string=CC1(C)S[C@@H]2[C@H](NC(=O)Cc3ccccc3)C(=O)N2[C@H]1C(=O)O observation_type="concentration at 1 d" result_units=ng/mL obs_value=93
smiles_string=C=C[C@]1(C)C[C@@H](OC(=O)CSCCN(CC)CC)[C@]2(C)[C@H](C)CC[C@]3(CCC(=O)[C@H]32)[C@@H](C)[C@@H]1O observation_type="concentration at 1 d" result_units=ng/mL obs_value=7600
smiles_string=COc1cc(Cc2cnc(N)nc2N)cc(OC)c1OC observation_type="concentration at 1 d" result_units=ng/mL obs_value=14100

Next, consider the following compound.
Reported concentration at 1 d ( `COc1ncnc(NS(=O)(=O)c2ccc(N)cc2)c1OC` ) = 22300

###

Hi there, I'd appreciate the recorded concentration at 3 d for every entry that follows.
- experiment-notes: Antibiotic concentrations in porcine oral fluid after intramuscular application (UHPLC-MS/MS)
- Format: in vivo
- setup-conditions: male, (Landrace × Yorkshire) × Duroc crossbred (DanBred sows), pig, intramuscular; oral fluid, pigs, i.m., time 3 d, treatment period; read-out: Avarage Concentrations in oral fluid
Give bare numbers, in ng/mL.

// worked examples, concentration at 3 d included
molecule="CC[C@H]1OC(=O)C[C@@H](O)[C@H](C)[C@@H](O[C@@H]2O[C@H](C)[C@@H](O[C@H]3C[C@@](C)(O)[C@@H](O)[C@H](C)O3)[C@H](N(C)C)[C@H]2O)[C@@H](CC=O)C[C@@H](C)C(=O)/C=C/C(C)=C/[C@@H]1CO[C@@H]1O[C@H](C)[C@@H](O)[C@@H](OC)[C@H]1OC [TYL, tylosin]" obs_value=832
molecule="CCC[C@@H]1C[C@@H](C(=O)N[C@@H]([C@H]2O[C@H](SC)[C@H](O)[C@@H](O)[C@H]2O)[C@@H](C)O)N(C)C1 [LIN, lincomycin]" obs_value=4250
molecule="C=C[C@]1(C)C[C@@H](OC(=O)CSCCN(CC)CC)[C@]2(C)[C@H](C)CC[C@]3(CCC(=O)[C@H]32)[C@@H](C)[C@@H]1O [TIAM, tiamulin]" obs_value=2460
molecule="COc1cc(Cc2cnc(N)nc2N)cc(OC)c1OC [TRMP, trimethoprim]" obs_value=1810
molecule="COc1ncnc(NS(=O)(=O)c2ccc(N)cc2)c1OC [SDX, sulfadoxine]" obs_value=4570
molecule="CC1(C)S[C@@H]2[C@H](NC(=O)Cc3ccccc3)C(=O)N2[C@H]1C(=O)O [PEN G, penicillin G]" obs_value=11

Reported concentration at 3 d ( CC1(C)S[C@@H]2[C@H](NC(=O)[C@H](N)c3ccc(O)cc3)C(=O)N2[C@H]1C(=O)O [AMX, amoxicillin] ) = 14.6

###

- experiment-notes: Antibiotic concentrations in porcine oral fluid after intramuscular application (UHPLC-MS/MS)
- Assay type: in vivo
- setup-conditions: oral fluid, pigs, i.m., time 1 d (24 h after first injection), treatment period
Hi there, I'd appreciate the recorded Avarage Concentrations in oral fluid for every entry that follows.
Numbers only, in µg/L.

molecule="C=C[C@]1(C)C[C@@H](OC(=O)CSCCN(CC)CC)[C@]2(C)[C@H](C)CC[C@]3(CCC(=O)[C@H]32)[C@@H](C)[C@@H]1O [TIAM, tiamulin]" obs_value=7600

Look up Avarage Concentrations in oral fluid for the entries below, preserving their order.
1. CC1(C)S[C@@H]2[C@H](NC(=O)Cc3ccccc3)C(=O)N2[C@H]1C(=O)O [PEN G, penicillin G]
2. CC1(C)S[C@@H]2[C@H](NC(=O)[C@H](N)c3ccc(O)cc3)C(=O)N2[C@H]1C(=O)O [AMX, amoxicillin]

Marked response:
[93, 11.3]

###

- experiment-notes: Antibiotic concentrations in porcine oral fluid after intramuscular application (UHPLC-MS/MS)
- Type: in vivo
- setup-conditions: male, (Landrace × Yorkshire) × Duroc crossbred (DanBred sows), pig, intramuscular; oral fluid, pigs, i.m., time 1 d (24 h after first injection), treatment period; read-out: Avarage Concentrations in oral fluid
observation-type: concentration at 1 d (ng/mL)
Answers are plain numbers, in ng/mL.

smiles_string=CCC[C@@H]1C[C@@H](C(=O)N[C@@H]([C@H]2O[C@H](SC)[C@H](O)[C@@H](O)[C@H]2O)[C@@H](C)O)N(C)C1 obs_value=10500
smiles_string=CC1(C)S[C@@H]2[C@H](NC(=O)[C@H](N)c3ccc(O)cc3)C(=O)N2[C@H]1C(=O)O obs_value=11.3

Next, consider the following compound.
Reported concentration at 1 d ( `CC[C@H]1OC(=O)C[C@@H](O)[C@H](C)[C@@H](O[C@@H]2O[C@H](C)[C@@H](O[C@H]3C[C@@](C)(O)[C@@H](O)[C@H](C)O3)[C@H](N(C)C)[C@H]2O)[C@@H](CC=O)C[C@@H](C)C(=O)/C=C/C(C)=C/[C@@H]1CO[C@@H]1O[C@H](C)[C@@H](O)[C@@H](OC)[C@H]1OC` ) = 396
